target: GK-GKRP (interaction between glucokinase and glucokinase regulatory protein) (Homo sapiens, UniProt Q14397); construct: made in house; host or cells: GKRP: baculovirus system; assay: GK-GKRP Binding Assay (Binding), AlphaScreen; settings: avi-tagged GKRP, GK-fluorescein, AlphaScreen beads, 1 μM sorbitol-6-phosphate; read-out: GK-GKRP IC50 (Binding)
Sequence (Q14397 whole entry): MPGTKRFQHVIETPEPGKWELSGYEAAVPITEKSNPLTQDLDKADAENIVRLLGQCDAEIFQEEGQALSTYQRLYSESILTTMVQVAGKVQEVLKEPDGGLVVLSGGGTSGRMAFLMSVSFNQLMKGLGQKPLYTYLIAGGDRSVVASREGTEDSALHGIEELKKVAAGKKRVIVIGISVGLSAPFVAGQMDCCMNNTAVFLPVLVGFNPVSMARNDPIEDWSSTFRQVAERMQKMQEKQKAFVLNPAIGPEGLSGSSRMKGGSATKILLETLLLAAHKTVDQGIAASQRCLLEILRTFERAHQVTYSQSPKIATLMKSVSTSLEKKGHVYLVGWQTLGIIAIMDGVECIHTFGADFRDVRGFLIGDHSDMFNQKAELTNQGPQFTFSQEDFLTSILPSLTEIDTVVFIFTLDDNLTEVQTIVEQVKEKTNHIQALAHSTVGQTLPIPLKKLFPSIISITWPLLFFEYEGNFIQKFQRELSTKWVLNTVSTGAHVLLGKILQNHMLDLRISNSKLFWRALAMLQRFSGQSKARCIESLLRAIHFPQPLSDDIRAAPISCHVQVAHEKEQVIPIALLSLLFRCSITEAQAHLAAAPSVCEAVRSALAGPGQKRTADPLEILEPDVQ
pIC50: −log10 of the molar value.
Please use t whenever pIC50 is not below 7, and f whenever it is.

Answered cases to consult:
compound	class assignment
COc1ccccc1[C@H](NS(=O)(=O)c1ccc2c(c1)OCCCO2)c1cc2ccccc2o1 (single isomer, unassigned) [Example 17 Peak #1]	f
Cc1ccccc1[C@@H](NS(=O)(=O)c1ccc2c(c1)OCCCO2)c1cc2ccccc2s1 (single isomer, unassigned) [Example 36 Peak #2]	f
C[C@@](O)(c1ccnc(-c2cccc3cc([C@H](NS(=O)(=O)c4ccc5c(c4)OCCCO5)c4ccccc4)sc23)c1)C(F)(F)F (single isomer, unassigned) [Example 70 Peak #1]	t
CSc1ccccc1C(NS(=O)(=O)c1ccc2c(c1)OCCCO2)c1cc2ccccc2s1 (racemic)	t
O=S(=O)(N[C@H](c1ccccc1)c1cc2ccccc2s1)c1ccc2c(c1)OCCCO2 (single isomer, unassigned) [Example 57 Peak #2]	f

Threshold query (pIC50 >= 7) on Cc1cccnc1C(NS(=O)(=O)c1ccc2c(c1)OCCCO2)c1cc2ccccc2o1 (racemic)
f

Threshold query (pIC50 >= 7) on O=S(=O)(N[C@H](c1ccccn1)c1cc2ccccc2o1)c1ccc2c(c1)OCCCO2 (single isomer, unassigned) [Example 25 Peak #2]
f

Threshold query (pIC50 >= 7) on COc1ccccc1C(NS(=O)(=O)c1ccc2c(c1)OCCCO2)c1cc2cccnc2s1 (racemic)
t

Threshold query (pIC50 >= 7) on C=Cc1ccccc1C(NS(=O)(=O)c1ccc2c(c1)OCCCO2)c1cc2ccccc2s1 (racemic)
t

Threshold query (pIC50 >= 7) on CCc1ccccc1[C@H](NS(=O)(=O)c1ccc2c(c1)OCCCO2)c1cc2ccccc2s1 (single isomer, unassigned) [Example 37 Peak #1]
f

Threshold query (pIC50 >= 7) on COc1ccccc1[C@H](NS(=O)(=O)c1ccc2c(c1)OCCCO2)c1cc2ccccc2s1 (single isomer, unassigned) [Example 40 Peak #1]
f

Threshold query (pIC50 >= 7) on O=S(=O)(N[C@@H](c1ccccn1)c1cc2ccccc2o1)c1ccc2c(c1)OCCCO2 (single isomer, unassigned) [Example 25 Peak #1]
f

Threshold query (pIC50 >= 7) on COc1ccccc1[C@@H](NS(=O)(=O)c1ccc2c(c1)OCCCO2)c1cc2ccccc2s1 (single isomer, unassigned) [Example 40 Peak #2]
t

###

biological target: GK-GKRP (interaction between glucokinase and glucokinase regulatory protein) (Homo sapiens, UniProt Q14397); construct: made in house; host or cells: GKRP: baculovirus system; experiment: GK-GKRP Binding Assay (Binding), AlphaScreen
measured attribute: pIC50
Units for pIC50: none; it is -log10 of a concentration expressed in mol/L.

                                   molecule  numeric_result
0  COc1ccc(S(=O)(=O)NC(c2cc3ccccc3s2)c2ccccc2SC)cc1OC (racemic) [Example 74]            5.57

The record that follows has no pIC50 shown yet.
Need pIC50, item O=S(=O)(N[C@@H](c1cc2ccccc2s1)c1ccccc1Cl)c1ccc2c(c1)OCC(O)CO2 (mixture of isomers) [Example 77]
7.01
